test: chemical genetic growth profiling, strain panel (AID 1159580);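 note: tested at 20 µM; growth read once vehicle control cultures reached saturation at 30 °C; 1 = growth at the plate median or of vehicle wells; lower values mean less growth of the strain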; conditions: S. cerevisiae deletion strains, growth OD, locus YPL256C, strain CLN2, stronger effect = lower value
Out of some 5,500 compounds screened, about 2,000 (36%) were called active. Not shown: some 18% with an inconclusive outcome. The list shows a part of the results. Where a SMILES comes first, the peptide text is derived from it. [ ]: non-standard residue; d: D form. Orn = NCCC[CH](N)C(=O)O
We label by threshold. Values of normalized growth strictly beneath 1 are criterion met. Values of 1 and up are criterion not met.

Req: For this compound, is normalized growth lower than 1? "Cc1onc(-c2c(Cl)cccc2Cl)c1C(=O)N[C@@H]1C(=O)N2[C@@H]1SC(C)(C)[C@@H]2C(=O)O"
Resp: criterion not met

Req: Further, for CC(C)CC1NC(=O)C(CCCN)NC(=O)C(C(C)C)NC(=O)C2CCCN2C(=O)C(Cc2ccccc2)NC(=O)C(CC(C)C)NC(=O)C(CCCN)NC(=O)C(C(C)C)NC(=O)C2CCCN2C(=O)C(Cc2ccccc2)NC1=O (centres undefined) (cyclo(FPV[Orn]LFPV[Orn]L); configuration not given here) ?
Resp: criterion met

Req: Then "NCCc1c[nH]c2ccccc12" ?
Resp: criterion met

Req: Would you mind doing "c1ccc2c(Cc3c[nH]c4ccccc34)c[nH]c2c1" as well?
Resp: criterion met

Req: Same again, this time with "O=C(NC1CCCCC1)NC1CCCCC1"
Resp: criterion not met

Req: Consider next the compound "FC(F)(F)c1cc(-c2ccc(Cl)cc2)n[nH]1" in the same way.
Resp: criterion met

Req: What about "COc1cc2cc3c4cc(OC)c(OC)cc4cc[n+]3c(C)c2cc1OC" ?
Resp: criterion met

Req: And the next one, "O=C(OC[C@H]1O[C@H](OC(=O)c2cc(O)c(O)c(OC(=O)c3cc(O)c(O)c(O)c3)c2)[C@H](OC(=O)c2cc(O)c(O)c(OC(=O)c3cc(O)c(O)c(O)c3)c2)[C@@H](OC(=O)c2cc(O)c(O)c(OC(=O)c3cc(O)c(O)c(O)c3)c2)[C@@H]1OC(=O)c1cc(O)c(O)c(OC(=O)c2cc(O)c(O)c(O)c2)c1)c1cc(O)c(O)c(OC(=O)c2cc(O)c(O)c(O)c2)c1" ?
Resp: criterion not met

Req: Same again, this time with "Cc1ccc(OCc2n[nH]c(=S)n2Cc2ccccc2)c2c1CCC2"
Resp: criterion met

Req: Another compound to look at: CC(=O)CC1CCCCN1 (centres undefined)
Resp: criterion met

Req: Then what about the compound "CC1(C)S[C@@H]2[C@H](NC(=O)[C@H](C(=O)O)c3cccs3)C(=O)N2[C@H]1C(=O)O" ?
Resp: criterion not met

Req: Then this compound: "C=C(C)[C@H]1Cc2c(ccc3c2O[C@@H]2COc4cc(OC)c(OC)cc4[C@@H]2C3=O)O1"
Resp: criterion met

Req: Now consider NC1C[C@H]1c1ccccc1 (some centres undefined) .
Resp: criterion met

====

experiment: chemical genetic growth profiling, strain panel (AID 1159580);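 note: tested at 20 µM; growth read once vehicle control cultures reached saturation at 30 °C; 1 = growth at the plate median or of vehicle wells; lower values mean less growth of the strain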; settings: S. cerevisiae deletion strains, growth OD, locus YHR027C, strain rpn1, stronger effect = lower value
Among all 5,500 compounds or so, about 2,000 (36%) were called active. About 18% were inconclusive and are not listed. The list shows a part of the results. Where a SMILES comes first, the peptide text is derived from it. Bridges are numbered along the chain shown (N, C = ends). Side-chain parts run from the residue outwards. [ ]: non-standard residue; d: D form. The star is where a group is joined. Octanoyl(6-Me) = CCC(C)CCCCC(=O)*; X1 = CCC(C)C(N)C1=NC(C(=O)*)CS1; Orn = NCCC[CH](N)C(=O)O; Dab = NCC[CH](N)C(=O)O
parameter: normalized growth
Note: the reply should be a number with no unit written.

Req: Any idea what normalized growth was measured for "CN(C)CCc1c[nH]c2ccc(C[C@H]3COC(=O)N3)cc12" ?
Resp: 1.01

Req: Thanks! And CC(NCCC(c1ccccc1)c1ccccc1)c1ccccc1 (configuration not stated) ?
Resp: 0.944

Req: Query "CN1CCN(CC(=O)N2c3ccccc3C(=O)Nc3cccnc32)CC1" next
Resp: 1.01

Req: Follow-up entry: CNC(Cc1c[nH]c2ccccc12)C(=O)O (configuration not stated)
Resp: 0.982

Req: What do you have for "COc1ccc([C@H]2COc3c(ccc(O)c3OC)C2)c(OC)c1O" ?
Resp: 0.978

Req: Continue with "COc1c2ccoc2cc2oc(C)cc(=O)c12"
Resp: 0.995

Req: Thanks! And "CC(=O)N[C@@H](Cc1c[nH]c2ccccc12)C(=O)O" ?
Resp: 0.976

Req: Try this compound too: "CNCC[C@@H](Oc1ccccc1)c1ccccc1"
Resp: 0.946

Req: "COc1cccc(OC)c1C(=O)N[C@@H]1C(=O)N2[C@@H]1SC(C)(C)[C@@H]2C(=O)O" ?
Resp: 1

Req: Could you do the same for CC(=O)OCC1=C(C(=O)O)N2C(=O)[C@@H](NC(=O)CCCC(N)C(=O)O)C2SC1 (some centres not stated) , please?
Resp: 0.99

Req: Same lookup for CC1(C)C(=O)[C@@H]2C[C@@]3(O)C4=CC(=O)O[C@@H](c5ccoc5)[C@]4(C)CCC3[C@@](C)(C2=O)[C@H]1CC(=O)O (some centres not stated) , please.
Resp: 0.993

Req: # repeat for CCC(C)CCCCC(=O)NC(CCN)C(=O)NC(C(=O)NC(CCN)C(=O)NC1CCNC(=O)C(C(C)O)NC(=O)C(CCN)NC(=O)C(CCN)NC(=O)C(CC(C)C)NC(=O)C(Cc2ccccc2)NC(=O)C(CCN)NC1=O)C(C)O (configuration not stated) ({Octanoyl(6-Me)}-[Dab]T[Dab][Dab][Dab]FL[Dab][Dab]T; lactam 4-C; configuration not given here)
Resp: 0.989

Req: Try this compound too: "COc1cc(NS(=O)(=O)c2ccc(N)cc2)ncn1"
Resp: 0.983

Req: Then this compound: "COc1c2occc2c(OC)c2c(=O)cc(C)oc12"
Resp: 0.987

Req: Another: "O=C(NC1CCCCC1)NC1CCCCC1"
Resp: 1

Req: Another: "CN(C)CCc1c[nH]c2ccc(CS(=O)(=O)N3CCCC3)cc12"
Resp: 0.984

Req: CCC(C)C(N)C1=NC(C(=O)NC(CC(C)C)C(=O)NC(CCC(=O)O)C(=O)NC(C(=O)NCCCCC2NC(=O)C(CC(N)=O)NC(=O)C(CC(=O)O)NC(=O)C(Cc3cnc[nH]3)NC(=O)C(Cc3ccccc3)NC(=O)C(C(C)CC)NC(=O)C(CCCN)NC2=O)C(C)CC)CS1 (stereo not drawn) (cyclo(DNK([Ile-Glu-Leu-X1])[Orn]IFH); configuration not given here) ?
Resp: 1.01
